We begin with a simple list: items and their reported Stability Three Freeze-Thaw.
Experiment: Stability of analytes in rat plasma under various storage conditions
Format: in vitro ADME
Settings: rat plasma, three freeze–thaw cycles at −20 °C, medium QC spiked concentration
RECORDED METRIC: Stability Three Freeze-Thaw (% RE)

- CC1CCC2(C(=O)OC3OC(CO)C(O)C(O)C3O)CCC3(C)C(=CCC4C5(C)CCC(O)C(C)(C)C5CCC43C)C2C1(C)O (stereo not drawn): −2.95
- C[C@@H]1CC[C@]2(C(=O)O[C@@H]3O[C@H](CO)[C@@H](O)[C@H](O)[C@H]3O)CC[C@]3(C)C(=CC[C@@H]4[C@@]5(C)CC[C@H](O[C@@H]6OC[C@H](O)[C@H](O)[C@H]6O)C(C)(C)[C@@H]5CC[C@]43C)[C@@H]2[C@]1(C)O [I, ziyuglycoside I]: 10.19
- C[C@@H]1CC[C@]2(C(=O)O[C@@H]3O[C@H](CO)[C@@H](O)[C@H](O)[C@H]3O)CC[C@]3(C)C(=CC[C@@H]4[C@@]5(C)C[C@@H](O)[C@H](O)C(C)(C)[C@@H]5CC[C@]43C)[C@@H]2[C@]1(C)O: 3.84
- CC1CCC2(C(=O)O)CCC3(C)C(=CCC4C5(C)C(O)C(O)C(O)C(C)(C)C5CCC43C)C2C1(C)O (stereo not drawn) [V, 1β-hydroxyeuscaphic acid]: 3.99
- CC1=C2C3=CCC4C5(C)CCC(OC6OCC(O)C(O)C6O)C(C)(C)C5CCC4(C)C3(C)CCC2(C(=O)OC2OC(CO)C(O)C(O)C2O)CCC1C (stereo not drawn): −5.29
- C=C1[C@H]2C3=CC[C@@H]4[C@@]5(C)C[C@@H](O)[C@@H](O)C(C)(C)[C@@H]5CC[C@@]4(C)[C@]3(C)CC[C@@]2(C(=O)O[C@@H]2O[C@H](CO)[C@@H](O)[C@H](O)[C@H]2O)CC[C@H]1C [VI, alpinoside]: 6.61

---

Assay: Pharmacokinetic study in rats after single oral administration of S. officinalis extract (UHPLC-MS/MS of plasma)
Type: in vivo, Sprague-Dawley rats
Conditions: male, Sprague-Dawley; rat plasma, single oral dose of S. officinalis extract 0.015 g/kg, n = 12, mean ± SD
We begin with a simple list: items and their reported AUC(0-t).
RECORDED METRIC: AUC(0-t)

• CC1=C2C3=CCC4C5(C)CCC(OC6OCC(O)C(O)C6O)C(C)(C)C5CCC4(C)C3(C)CCC2(C(=O)OC2OC(CO)C(O)C(O)C2O)CCC1C (centres unmarked) = 1140 ng·h/mL
• C[C@@H]1CC[C@]2(C(=O)O[C@@H]3O[C@H](CO)[C@@H](O)[C@H](O)[C@H]3O)CC[C@]3(C)C(=CC[C@@H]4[C@@]5(C)CC[C@H](O[C@@H]6OC[C@H](O)[C@H](O)[C@H]6O)C(C)(C)[C@@H]5CC[C@]43C)[C@@H]2[C@]1(C)O [I, ziyuglycoside I] = 2880 ng·h/mL

---

Assay: Pharmacokinetic study in rats after single oral administration of S. officinalis extract (UHPLC-MS/MS of plasma)
Type: in vivo, Sprague-Dawley rats
Conditions: male, Sprague-Dawley, rat, plasma, po, 0.015 g/kg, rat plasma, single oral dose of S. officinalis extract 0.015 g/kg, n = 12, mean ± SD; read-out: Cmax
Quick rule for you: Cmax at 0.5 µg/mL or higher means criterion met, lower means criterion not met.

• CC1=C2C3=CCC4C5(C)CCC(OC6OCC(O)C(O)C6O)C(C)(C)C5CCC4(C)C3(C)CCC2(C(=O)OC2OC(CO)C(O)C(O)C2O)CCC1C (stereo not drawn) = criterion not met
• CC1CCC2(C(=O)OC3OC(CO)C(O)C(O)C3O)CCC3(C)C(=CCC4C5(C)CCC(O)C(C)(C)C5CCC43C)C2C1(C)O (stereo not drawn) = criterion met
• C[C@@H]1CC[C@]2(C(=O)O[C@@H]3O[C@H](CO)[C@@H](O)[C@H](O)[C@H]3O)CC[C@]3(C)C(=CC[C@@H]4[C@@]5(C)CC[C@H](O[C@@H]6OC[C@H](O)[C@H](O)[C@H]6O)C(C)(C)[C@@H]5CC[C@]43C)[C@@H]2[C@]1(C)O [I, ziyuglycoside I] = criterion met
• C[C@@H]1CC[C@]2(C(=O)O[C@@H]3O[C@H](CO)[C@@H](O)[C@H](O)[C@H]3O)CC[C@]3(C)C(=CC[C@@H]4[C@@]5(C)C[C@@H](O)[C@H](O)C(C)(C)[C@@H]5CC[C@]43C)[C@@H]2[C@]1(C)O = criterion not met
• C=C1[C@H]2C3=CC[C@@H]4[C@@]5(C)C[C@@H](O)[C@@H](O)C(C)(C)[C@@H]5CC[C@@]4(C)[C@]3(C)CC[C@@]2(C(=O)O[C@@H]2O[C@H](CO)[C@@H](O)[C@H](O)[C@H]2O)CC[C@H]1C [VI, alpinoside] = criterion not met
• CC1CCC2(C(=O)O)CCC3(C)C(=CCC4C5(C)C(O)C(O)C(O)C(C)(C)C5CCC43C)C2C1(C)O (stereo not drawn) [V, 1β-hydroxyeuscaphic acid] = criterion not met
